# ASSAY COMMENT: qHTS Assay for Lipid Storage Modulators (AID 1519)
# PARTICULARS: Drosophila S3 cells, BODIPY lipid droplet/cell ratio, laser cytometry; measured here: cell count channel max response; cells loaded with oleic acid
Results filed as inconclusive are left out.
// reported max response per item

SMILES ENTRY	max response
O=c1cnc2cnc(Nc3ccccc3)nc2n1C1CC1	4.87%
O=C(c1cnccn1)N1CCC[C@@]2(CCN(C(c3ccccc3)c3ccccc3)C2)C1	3.2%
NCCC(=O)NCCc1cnc[nH]1	9.26%

Indicate its recorded max response; the molecule in question is "CN(C)c1ncc2nc(-c3ccccc3)c(=O)n(-c3ccccc3)c2n1"
22.5%

Provide one value: measured max response of "Cc1nc2cnc(N3CCN(C)CC3)nc2n(CCC#N)c1=O"
7.54%

Name the recorded max response of the molecule listed here: "COc1cccc(Nc2ncc3nc(C)c(=O)n(Cc4cccs4)c3n2)c1"
12.9%

Give recorded max response. "Cc1cnc(CNc2ncncc2-c2ccccc2C(F)(F)F)cn1"
18.6%

Identify measured max response corresponding to "COc1ccc(-c2nc3cnc(N4CCNCC4)nc3n(-c3ccc(OC)cc3)c2=O)cc1"
15%

For the molecule "CN(C)c1ncc2nc(-c3cn(C)c4ccccc34)c(=O)n(C[C@H]3CCCO3)c2n1" , give its reported max response.
5.1%

Tell me max response reported for "CCNc1ncc2nc(-c3ccc(Cl)cc3)c(=O)n(CCC#N)c2n1"
15.3%

Look up and state reported max response for "CN(C)c1ccc(-c2ccc3ncnc(N4CCNCC4)c3c2)cc1"
-3.08%

The measurements presented in this section are drawn from PubChem BioAssay (NCATS).
